# Tested on: Madurella mycetomatis MM55
# Experiment notes: growth relative to untreated control; higher = less inhibition, active = 20 or less
# Run conditions: 100 µM
// reported growth for each item listed
Property label: growth (%)

COc1ccc(-c2ccc3c(-c4ccc(F)cc4)cnc(N)c3c2)cn1 | 38.6
COC(=O)N[C@H](C(=O)N1CCC[C@H]1c1ncc(-c2ccc(-c3ccc(-c4cnc([C@@H]5CCCN5C(=O)[C@@H](NC(=O)OC)C(C)C)[nH]4)cc3)cc2)[nH]1)C(C)C | 85.6
C[C@H](Cn1cnc2c(N)ncnc21)OCP(=O)(O)O | 81.3
C[C@@H]1[C@@H](NC(=O)c2cn3cc(Cl)ccc3n2)C[C@H]2C[C@@H]1C2(C)C | 7.3
Cc1noc(C2CN(C(=O)c3ccc(Nc4nccc(-c5ccc(Cl)cc5)n4)cc3)C2)n1 | 73.7
O=C(NC1CCN(CCOc2ccc(Cl)cc2)CC1)c1c[nH]c2ccncc2c1=O | 102
FC(F)(F)CNc1ncc2nc(Nc3cc(Cl)cc(Cl)c3)n(C3CCNCC3)c2n1 | 4.54
CC(C)(C)NCc1cc(Nc2ccnc3cc(Cl)ccc23)c2c(c1O)CCCC2 | 95.1
Cn1cnc2c(F)c(Nc3ccc(Br)cc3Cl)c(C(=O)NOCCO)cc21 | 86.3
N#Cc1cccc(C(=O)NC2CCN(c3ccnc(Nc4ccc(F)cc4)n3)C2)c1 (centres undefined) | 85.8
COC(=O)[C@@]1(c2ccc(C)cc2)C[C@H]1CN1CCC(O)(c2ccccc2)CC1 | 72.2
FC(F)(F)c1cc(Cl)cc(Nc2nc3cnc(NC4CCC4)cc3[nH]2)c1 | 27
CCCN1CCC=C(c2cc(-c3ccc(C)cc3)no2)C1 | 4.88
CCN1CCN(C2CCN(C(=O)COc3ccc(-c4ccccc4F)cc3)CC2)CC1 | 41.1
Cc1nc(NCc2ccc(F)cc2)nc(NCC(C)(C)C)c1C | 5.94
CC(C)c1nc(CN(C)C(=O)N[C@H](C(=O)N[C@@H](Cc2ccccc2)C[C@H](O)[C@H](Cc2ccccc2)NC(=O)OCc2cncs2)C(C)C)cs1 | 82.2
Nc1nc(Nc2ccc3c(c2)CC[C@@H](N2CCCC2)CC3)nn1-c1cc2c(nn1)-c1ccccc1CCC2 | 4.45
CC(C)(C)c1nc(-c2cccc(NS(=O)(=O)c3c(F)cccc3F)c2F)c(-c2ccnc(N)n2)s1 | 82.4
Cc1cc(OCCN2CCOCC2)nn1-c1ccc2ccccc2c1 | 65

###

# Test system: Falciformispora senegalensis CBS197.79
# Experiment notes: growth relative to untreated control; higher = less inhibition, active = 20 or less
# Run conditions: 100 µM
Labels: true for active, false for inactive

CC[C@H](C)[C@H]1O[C@]2(CC[C@@H]1C)C[C@@H]1C[C@@H](C/C=C(\C)[C@@H](O[C@H]3C[C@H](OC)[C@@H](O[C@H]4C[C@H](OC)[C@@H](O)[C@H](C)O4)[C@H](C)O3)[C@@H](C)/C=C/C=C3\CO[C@@H]4[C@H](O)C(C)=C[C@@H](C(=O)O1)[C@]34O)O2 | false
C[C@H](NC(=O)c1cc2cccc(F)c2[nH]1)c1ccccc1 | false
Cc1onc(-c2ccccc2)c1-c1ccc(S(N)(=O)=O)cc1 | false
CN1[C@H]2CC[C@H]1CC(OC(c1ccccc1)c1ccccc1)C2 (stereo not given in full) | false
CCOC(=O)NCCOc1cnn(Cc2ccccc2)c(=O)c1 | false
COc1ccc2cc1Oc1ccc(cc1)C[C@H]1c3cc(c(OC)cc3CCN1C)Oc1c(O)c(OC)cc3c1[C@@H](C2)N(C)CC3 | true
O=C(Nc1cc(Cl)cc(Cl)c1O)c1c(O)c(Cl)cc(Cl)c1Cl | true
Cc1cccc2c1N(C(=O)c1cc(Br)nn1-c1ncccc1Cl)CN(C(C)C)C2=O | false
Cc1ccc(-c2cc(C(F)(F)F)nn2-c2ccc(S(N)(=O)=O)cc2)cc1 | true
CCCCN(CCCC)CCC(O)c1cc2c(Cl)cc(Cl)cc2c2cc(C(F)(F)F)ccc12 (stereo not given) | false
O=C(Nc1cccc(-c2cc3nc(Nc4ccc(N5CCOCC5)cc4)ncc3[nH]2)c1)C1CC1 | false
NS(=O)(=O)c1cc2c(cc1Cl)NC=NS2(=O)=O | false
COc1ccc(CCNc2nccc(-c3cc(Cl)cc(C(F)(F)F)c3)n2)cc1 | false
CNC(=O)c1cc(-c2n[nH]c3ccc(-c4nc(C5CCCN5)n[nH]4)cc23)ccc1F (stereo not given) | false
Cn1nc(-c2cccc(C#N)c2)c2cc(-c3n[nH]c(C4CCCN4)n3)ccc21 (stereo not given) | false
O=C(c1ccc(Nc2nccc(-c3ccc(Cl)cc3)n2)cc1)N1CCS(=O)(=O)CC1 | false
CCc1nn2c(Nc3ccncc3)cc(C)nc2c1-c1ccccc1 | false
Cn1ccnc1SCC(=O)Nc1ccc(C(=O)Nc2ncccc2O)cc1 | false
COC(=O)N[C@H](C(=O)N1CCC[C@H]1c1ncc(-c2ccc(-c3ccc(-c4cnc([C@@H]5CCCN5C(=O)[C@@H](NC(=O)OC)C(C)C)[nH]4)cc3)cc2)[nH]1)C(C)C | false
S=C(NCc1ccc2c(c1)OCO2)N1CCN(c2ncnc3c2oc2ccccc23)CC1 | false
O=C(NCc1ccco1)c1ccc2[nH]c(COc3ccc(C45CC6CC(CC(C6)C4)C5)cc3)nc2c1 | false
CN(C)C(=O)COC(=O)Cc1ccc(OC(=O)c2ccc(NC(=N)N)cc2)cc1 | false
OB(O)O | false
Cc1c(O)cccc1C(=O)N[C@@H](CSc1ccccc1)[C@H](O)CN1C[C@H]2CCCC[C@H]2C[C@H]1C(=O)NC(C)(C)C | false
CC(C)N1CCN(c2ccc(OC[C@H]3CO[C@](Cn4cncn4)(c4ccc(Cl)cc4Cl)O3)cc2)CC1 | true
CN(C)CCOc1ccc2nc(-c3cccc(OCc4ccccc4)c3)[nH]c2c1C#N | true
CCCCCOc1ccc(-c2ccc(-c3ccc(C(=O)N[C@H]4C[C@@H](O)[C@@H](O)NC(=O)[C@@H]5[C@@H](O)[C@@H](C)CN5C(=O)[C@H]([C@@H](C)O)NC(=O)[C@H]([C@H](O)[C@@H](O)c5ccc(O)cc5)NC(=O)[C@@H]5C[C@@H](O)CN5C(=O)[C@H]([C@@H](C)O)NC4=O)cc3)cc2)cc1 | false
COc1cc2nccc(Oc3ccc(NC(=O)C4(C(=O)Nc5ccc(F)cc5)CC4)cc3)c2cc1OC | false
Clc1cccc2cnsc12 | false
CC1(O)CN(C(=O)c2cccc(NC(=O)c3ccc(Nc4ccccn4)cc3)c2)C1 | false
Cc1cc(Cl)ccc1NC(=S)N(C)C | false
O[C@@H](c1cc(C(F)(F)F)nc2c(C(F)(F)F)cccc12)[C@H]1CCCCN1 | true
O=C(c1ccc(Nc2nccc(-c3cc(Cl)cc(C(F)(F)F)c3)n2)cc1)N1CC(O)C1 | false
Clc1ccc2c(N3CCN(CCCN4CCN(c5ccnc6cc(Cl)ccc56)CC4)CC3)ccnc2c1 | false
CCC(C)n1ncn(-c2ccc(N3CCN(c4ccc(OCC5COC(Cn6cncn6)(c6ccc(Cl)cc6Cl)O5)cc4)CC3)cc2)c1=O (stereo not given) | false

###

// reported growth for each item listed
# Test system: Falciformispora senegalensis CBS197.79
# Experiment notes: growth relative to untreated control; higher = less inhibition, active = 20 or less
# Run conditions: 25 µM
Property label: growth (%)

NC1CCc2nc(-c3cccnc3)nc(Nc3ccc(C(F)(F)F)cc3)c2C1 (configuration not stated) | 102
CO[C@H]1C[C@@H]2CC[C@@H](C)[C@@](O)(O2)C(=O)C(=O)N2CCCC[C@H]2C(=O)O[C@H]([C@H](C)C[C@@H]2CC[C@@H](O)[C@H](OC)C2)CC(=O)[C@H](C)/C=C(\C)[C@@H](O)[C@@H](OC)C(=O)[C@H](C)C[C@H](C)/C=C/C=C/C=C/1C | 103
CC(C)Nc1ncc2nc(Nc3cc(C(F)(F)F)cc(C(F)(F)F)c3)n(C3CCNCC3)c2n1 | 104
CC(=O)N1CCN(c2ccc(OC[C@H]3CO[C@](Cn4ccnc4)(c4ccc(Cl)cc4Cl)O3)cc2)CC1 | 31.6
Cc1cccc(C=NNc2cc(N3CCOCC3)nc(OCCc3ccccn3)n2)c1 | 82.1
Cc1ccc(-c2c3c(nc4sc(C(=O)Nc5ccc(F)cc5)c(N)c24)CCC3)cc1 | 81.3
CC(C)(C)c1nc(-c2cccc(NS(=O)(=O)c3c(F)cccc3F)c2F)c(-c2ccnc(N)n2)s1 | 101

###

# System: Falciformispora senegalensis CBS197.79
# Experiment notes: growth relative to untreated control; higher = less inhibition, active = 20 or less
# Run conditions: 25 µM
Labels: class 1 = active, class 0 = inactive

NS(=O)(=O)OC[C@@H]1C[C@@H](n2ccc3c(N[C@H]4CCc5ccccc54)ncnc32)C[C@@H]1O | class 0
COc1ccc2cc1Oc1ccc(cc1)C[C@H]1c3cc(c(OC)cc3CCN1C)Oc1c(O)c(OC)cc3c1[C@@H](C2)N(C)CC3 | class 0
CNc1ccc2cc(NC(=O)c3ccc(C(F)(F)F)c(Cl)c3)ccc2n1 | class 0
N#C/C(C(=O)c1ccccc1Cl)=C1\NC(c2ccccc2)=CS1 | class 0
O=C(Nc1ncccc1O)c1ccc(S(=O)(=O)NCCc2cccs2)cc1 | class 0
CN(c1ncc2nc(Nc3cc(Cl)cc(C(F)(F)F)c3)n(C3CCNCC3)c2n1)C1CC1 | class 0
Cc1nn(-c2cccc(Cl)c2)c2c1C(C(=O)c1ccc3c(c1)OCO3)CC(=O)N2 (stereo not drawn) | class 0
Nc1nc2ccccc2n1CC(O)c1ccc(Cl)cc1Cl (stereo not drawn) | class 0
CCO[C@@H]1[C@@H](OC)[C@H](C)O[C@@H](O[C@@H]2C[C@H]3CC[C@@H]4[C@@H](C=C5C(=O)[C@H](C)[C@@H](O[C@H]6CC[C@H](N(C)C)[C@@H](C)O6)CCC[C@H](CC)OC(=O)C[C@H]54)[C@@H]3C2)[C@@H]1OC | class 0
N#Cc1cccc(C(=O)NC2CCN(c3ccnc(Nc4ccc(F)cc4)n3)C2)c1 (stereo not drawn) | class 0
Cc1cc2ncc(C(=O)NCC(C)(C)NCC(=O)N3CCC[C@H]3C#N)cn2n1 | class 0
CNCc1[cH-]ccc1CNc1ccnc2cc(Cl)ccc12.[Fe+2].c1cc[cH-]c1 | class 1
C/C=C/C[C@@H](C)[C@@H](O)[C@H]1C(=O)N[C@@H](CC)C(=O)N(C)CC(=O)N(C)[C@@H](CC(C)C)C(=O)N[C@@H](C(C)C)C(=O)N(C)[C@@H](CC(C)C)C(=O)N[C@@H](C)C(=O)N[C@H](C)C(=O)N(C)[C@H](CC(C)C)C(=O)N(C)[C@@H](CC(C)C)C(=O)N(C)[C@@H](C(C)C)C(=O)N1C | class 0
CCNCc1cc(Nc2ccnc3cc(Cl)ccc23)ccc1O | class 0
CC(C)NCc1cccc(-c2ccc(NC(=O)c3cccc(C#N)c3)cc2)c1 | class 0
Nc1nc(NC2CC2)c2ncn([C@H]3C=C[C@@H](CO)C3)c2n1 | class 0
O=C1NCN(c2ccccc2)C12CCN(CCCC(c1ccc(F)cc1)c1ccc(F)cc1)CC2 | class 1
Cc1ccccc1-c1noc(-c2ccccc2)n1 | class 0
